- System: MDA-MB-231 breast
- Experiment summary: NCI tumour cell line growth inhibition, 48 h
GI50 by entry:
Measurement kind: GI50

> print(dat)
                                   molecule  measurement.kind  value.measured
1  Cc1cc(S(N)(=O)=O)c(S/C(=N\NS(=O)(=O)c2ccccc2)c2ccc(Cl)c(Cl)c2)cc1Cl              GI50         28.7 µM
2  Cc1nc2cc(Nc3nc(Nc4ccc(F)cc4)nc(-c4ccc(Cl)cc4)n3)ccc2n1Cc1ccccc1              GI50         9.97 µM
3  Cc1cc(C(=O)Nc2cc(Nc3ncccc3-c3ncnc4nc[nH]c34)ccc2F)cc(C(C)(C)C#N)c1              GI50        0.123 µM
4  COc1cccc(C2CC(=O)Nc3cc4c(cc32)CCC4)c1OC (stereo not given)              GI50         6.17 µM
5             CNc1ccc(N=Nc2cccc3ncccc23)cc1              GI50         7.47 µM

---

TGI by entry:
- System: NCI/ADR-RES ovarian
- Experiment summary: NCI tumour cell line growth inhibition, 48 h
Measurement kind: TGI

> print(dat)
                               given.smiles  value.measured
1  O=C1CCCC2=C1CC1=C(CCCC1=O)N2c1ccc(-c2ccccc2)cc1        > 100 µM
2              CC(C)(C)C#CI1OC(=O)c2ccccc21       > 45.4 µM
3  C[N+]1(CCCCN2c3ccccc3Sc3cc(N=[N+]=[N-])ccc32)CCN(C(=O)CCNC(=O)Cc2ccc(C(=O)c3ccccc3)cc2)CC1       > 91.1 µM
4  CN(C)CCN1C(=O)N(CCN(C)C)c2c3cc(O)ccc3nc3c([N+](=O)[O-])ccc1c23         86.3 µM

---

- Tested on: SK-MEL-2 melanoma
- Experiment summary: NCI tumour cell line growth inhibition, 48 h
GI50 by entry:
Measurement kind: GI50

> print(dat)
                                   compound  value.measured
1  Cc1nc2cc(Nc3nc(Nc4ccc(F)cc4)nc(-c4ccc(Cl)cc4)n3)ccc2n1Cc1ccccc1         4070 nM
2  N#CC1=C(N)NC(=S)C(C#N)C12Nc1ccccc1S2 (centres undefined)        29300 nM
3  O=c1c2ccccc2c(=O)c2c1sc1c(=O)c3ccc(O)cc3c(=O)c12         1470 nM
4  N#Cc1c(-c2ccc(Cl)cc2)csc1NC(=O)Nc1cccc(C(F)(F)F)c1         2000 nM
5     NCCn1c2c(c3ccccc3c1=O)C(=O)c1ccccc1-2         2700 nM
6  CC(=O)[O-].O=[N+]([O-])c1ccc([O-])c(C=NCCN=Cc2cc([N+](=O)[O-])ccc2[O-])c1.[Mn+3]     > 100000 nM
7  COc1ccc(-c2nc(/C=N/Nc3cc(C)nc4ccc(Br)cc34)c(C)o2)cc1         1990 nM
8  COc1ccccc1-c1nccc(COc2ccccc2C[C@@H](Oc2ncnc3sc(-c4ccc(F)cc4)c(-c4ccc(OCCN5CCN(C)CC5)c(Cl)c4C)c23)C(=O)O)n1       < 11.4 nM
9  NCCNc1nc2ccccc2c2c(=O)c3cc(F)cc(Cl)c3sc12         1820 nM

---

GI50 by entry:
- System: IGROV1 ovarian
- Experiment summary: NCI tumour cell line growth inhibition, 48 h

Molecule	GI50
CN1CCN(CCCOc2ccc3ncnc(Nc4ccc(Oc5cccc(F)c5)c(Cl)c4)c3c2)CC1	711 nM
COc1cc(/C=C2\C(=O)Nc3ccc(Br)cc32)cc(OC)c1OC	2290 nM
COc1ccc2c(c1)c(-c1cc(-c3cn(C)c4ccc(OC)cc34)[nH]n1)cn2C	> 100000 nM
Cc1cc(C(=O)Nc2cc(Nc3ncccc3-c3ncnc4nc[nH]c34)ccc2F)cc(C(C)(C)C#N)c1	694 nM
C#CCn1cc(C=C2C(=O)NC(=S)NC2=O)c2cc(Cl)ccc21	2130 nM
CC(=O)[O-].O=[N+]([O-])c1ccc([O-])c(C=NCCN=Cc2cc([N+](=O)[O-])ccc2[O-])c1.[Mn+3]	2730 nM
Cc1cc(S(N)(=O)=O)c(S/C(=N\NS(=O)(=O)c2ccccc2)c2ccc(Cl)c(Cl)c2)cc1Cl	44000 nM
COc1ccc2nc3cc(Cl)ccc3c(Nc3ccc(O)c(CN4CCCC4)c3)c2c1	2600 nM
C/C(=N\O)[C@H]1CC[C@@]2(C)[C@@H]3CC[C@H]4C(C)(C)/C(=N/O)CC[C@@]45CC35CC[C@]12C (stereo partly drawn)	5280 nM
Cc1ccc(NCCNCC(O)CO)c2c(=O)c3ccccc3sc12 (stereo not drawn)	1610 nM
Cc1ccc(S(=O)c2ccc([N+](=O)[O-])c3nonc23)cc1 (stereo not drawn)	12200 nM
CCCCCCCCCCCCCCCCCCNC(=O)[C@H]1CSC(c2ccc(F)c(OC)c2)N1 (stereo partly drawn)	1430 nM
Cc1nc2cc(Nc3nc(Nc4ccc(F)cc4)nc(-c4ccc(Cl)cc4)n3)ccc2n1Cc1ccccc1	5900 nM
O=C(CCl)Nc1ccc(C(=O)N/N=C/c2ccc(Cl)cc2)cc1	1850 nM
Cc1cc2c(-c3nc4ccccn4c3NC34CC5CC(CC(C5)C3)C4)c(O)c(O)cc2c(O)c1-c1c(C)cc2c(-c3nc4ccccn4c3NC34CC5CC(CC(C5)C3)C4)c(O)c(O)cc2c1O	883 nM
COc1ccc(C2NC(=S)NC3=C2COc2ccc(F)cc23)cc1OC (stereo not drawn)	29800 nM
COc1ccccc1-c1nccc(COc2ccccc2C[C@@H](Oc2ncnc3sc(-c4ccc(F)cc4)c(-c4ccc(OCCN5CCN(C)CC5)c(Cl)c4C)c23)C(=O)O)n1	2270 nM
NCCNc1nc2ccccc2c2c(=O)c3cc(F)cc(Cl)c3sc12	1510 nM

---

TGI by entry:
- Tested on: HOP-62 NSCLC
- Experiment summary: NCI tumour cell line growth inhibition, 48 h
Measurement kind: TGI

> print(dat)
                                    compound        target  measurement.kind  value.measured
 1  C=CCN(c1cc(OC)c2[nH]c(C(=O)O)c(C)c2c1[N+](=O)[O-])S(C)(=O)=O  HOP-62 NSCLC               TGI        > 100 µM
 2  BrC(Br)([P+](c1ccccc1)(c1ccccc1)c1ccccc1)[P+](c1ccccc1)(c1ccccc1)c1ccccc1  HOP-62 NSCLC               TGI        > 100 µM
 3  CCOC(=O)c1c(-c2ccc(OC)cc2)c(C#N)c(=S)n(C2OC(CO)C(O)C(O)C2O)c1C (stereo not given)  HOP-62 NSCLC               TGI        > 100 µM
 4  C(/C=C/N1CCCC1)=C\c1nc(N2CCCC2)c2ccccc2n1  HOP-62 NSCLC               TGI         35.2 µM
 5             COc1ccc(-c2conc2-c2ccccc2)cc1  HOP-62 NSCLC               TGI        > 100 µM
 6  CC(Br)CN(CC(C)Br)c1ccc2c(c1)Cc1ccccc1-2 (stereo not given)  HOP-62 NSCLC               TGI         23.9 µM
 7  O=C(O)C(Cc1c[nH]c2ccccc12)N1C(=O)c2ccccc2C1=O (stereo not given)  HOP-62 NSCLC               TGI        > 100 µM
 8  CSc1ncnc2c1cnn2Cc1cn(COCC(O)CO)nn1 (stereo not given)  HOP-62 NSCLC               TGI        > 100 µM
 9  CC(=O)N=S(NC(=O)c1ccc(C)cc1)C(Cl)(Cl)Cl (stereo not given)  HOP-62 NSCLC               TGI        > 100 µM
10  O=c1[nH]nc(-c2ccc([N+](=O)[O-])cc2)[nH]1  HOP-62 NSCLC               TGI        > 100 µM

---

- Test system: NCI-H226 lung
- Experiment summary: NCI tumour cell line growth inhibition, 48 h
TGI by entry:
Measurement kind: TGI

Compound	Measurement kind	Value measured
Cc1nnc(N=Nc2c(O)[nH]c3ccccc23)[nH]c1=O	TGI	> 100 µM
CC[C@H](C)[C@H](NC(=O)N[C@@H](C)c1ccccc1)C(=O)N(C)[C@H](C[C@@H](OC(C)=O)c1nc(C(=O)N[C@@H](Cc2ccccc2)C[C@H](C)C(=O)OC)cs1)C(C)C	TGI	> 100 µM
Cc1cc(Nc2cc(N3CCN(C)CC3)nc(C#Cc3ccccc3)n2)n[nH]1	TGI	14.3 µM
CC(C)c1ccc2c(c1)c(SC(C)(C)C)c(CC(C)(C)C(=O)O)n2Cc1ccc(Cl)cc1	TGI	30.8 µM
O=c1ncccn1C1OC(CO)C(O)C1F (stereo not given)	TGI	> 100 µM
Cc1cc(N(CCC#N)CCC#N)ccc1/C=C/C(=O)Nc1ccccc1Cl	TGI	> 100 µM
COc1ccc2c(c1)c(-c1cc(-c3cn(C)c4ccc(OC)cc34)[nH]n1)cn2C	TGI	> 100 µM
CCOC(=O)/N=c1\ssc(Cl)c1Cl	TGI	> 100 µM
CNc1ccc(N=Nc2cccc3ncccc23)cc1	TGI	> 100 µM
CC12O[Te]34OC1(C)C(C)(O3)C2(C)O4	TGI	44.6 µM
